# target: Muscarinic acetylcholine receptor M1 (Homo sapiens)
# Sequence (P11229 whole entry): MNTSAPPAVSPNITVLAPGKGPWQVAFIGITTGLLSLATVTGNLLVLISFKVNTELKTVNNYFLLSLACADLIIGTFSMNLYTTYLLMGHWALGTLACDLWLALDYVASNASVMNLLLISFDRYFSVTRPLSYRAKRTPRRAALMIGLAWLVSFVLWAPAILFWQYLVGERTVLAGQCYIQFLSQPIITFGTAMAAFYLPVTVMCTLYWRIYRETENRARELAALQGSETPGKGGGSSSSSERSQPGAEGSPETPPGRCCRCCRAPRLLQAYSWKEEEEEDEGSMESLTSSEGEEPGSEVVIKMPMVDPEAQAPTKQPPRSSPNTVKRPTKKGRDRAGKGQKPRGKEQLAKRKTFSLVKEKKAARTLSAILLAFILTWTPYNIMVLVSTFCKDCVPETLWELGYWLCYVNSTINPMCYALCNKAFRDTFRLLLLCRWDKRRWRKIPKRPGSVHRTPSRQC
# procedure text: Antagonist activity at human recombinant muscarinic receptor M1 expressed in CHO-K1 cells assessed as EC80 acetylcholine-induced calcium flux incubated for 30 mins
pIC50: −log10 of the molar value.
quantity measured: pIC50

[P] Cc1cc(F)cnc1N1CCN(C(=O)CCS(=O)(=O)c2cccc3ncsc23)[C@@H](C)C1
[Q] N#Cc1ccc(N2CC3CCC2CN3C(=O)CCS(=O)(=O)c2cccc3ncsc23)nc1 (stereo not given)
Compare reported pIC50 values for P and Q . Which is lower? Reply with the label of the item you choose. P

[A] N#Cc1cnccc1N1CCN(C(=O)CCCc2cccc3ncccc23)CC1
[B] Cc1cc(F)cnc1N1CCN(C(=O)COCc2cccc3ncsc23)[C@@H](C)C1
Compare reported pIC50 values for A and B . Which is lower? Reply with the label of the item you choose. B
(B: 5.40, A: 5.90)
